Provenance of the data: patent US9745283B2

# tgt: recombinant human baculovirus-expressed cMET (Homo sapiens (Human))
# experiment.description: C-MET Kinase Assay (HTRF KinEASE)
# Type: biochemical
# measurement.context: average of two or more determinations; read-out: c-MET IC50
property: IC50

The following compounds have reported results that may help.
[
  {
    "entry.smiles": "COc1cc2nccc(Oc3ccc(NC(=O)c4cn(CCOCc5ccccc5)c(=O)n(-c5ccc(F)cc5)c4=O)cc3)c2cc1OC",
    "result": "10 to 100 nM"
  },
  {
    "entry.smiles": "COc1cc2nccc(Oc3ccc(NC(=O)c4cn(C(C)C)c(=O)n(-c5ccc(F)cc5)c4=O)cc3)c2cc1OC",
    "result": "< 10 nM"
  }
]

Ask: Which IC50 value is on record for `COc1cc2nccc(Oc3ccc(NC(=O)c4cn(C(C)C)c(=O)n(-c5ccc(F)cc5)c4=O)nc3)c2cc1OC` ?
Reply: 10 to 100 nM

Ask: One more compound: `CCC#CCn1c(=O)c(C(=O)Nc2ccc(Oc3ccnc4cc(OC)c(OC)cc34)c(F)c2)nn(C)c1=O`
Reply: 101 to 1000 nM

###

# tgt: recombinant human baculovirus-expressed cMET (Homo sapiens (Human))
# experiment.description: C-MET Kinase Assay (HTRF KinEASE)
# Type: biochemical
# measurement.context: average of two or more determinations; read-out: c-MET IC50
property: IC50

Please review the following examples before continuing.
[
  {
    "compound": "COc1cc2nccc(Oc3ccc(NC(=O)c4cn(CCC5CCCCC5)c(=O)n(-c5ccc(F)cc5)c4=O)cc3F)c2cc1OC [Example 80]",
    "IC50": "0.101 to 1 µM"
  },
  {
    "compound": "COc1cc2nccc(Oc3ccc(NC(=O)c4cn(C(C)C)c(=O)n(C(C)C)c4=O)cc3F)c2cc1OC [Example 94]",
    "IC50": "0.01 to 0.1 µM"
  },
  {
    "compound": "CCn1cc(C(=O)Nc2cc(F)c(Oc3ccnc4cc(OC)c(OC)cc34)c(F)c2)c(=O)n(-c2ccc(F)cc2)c1=O [Example 90]",
    "IC50": "0.01 to 0.1 µM"
  },
  {
    "compound": "COc1cc2nccc(Oc3ccc(NC(=O)c4cn(C(C)C)c(=O)n(-c5ccc(F)cc5)c4=O)cc3C)c2cc1OC [Example 163]",
    "IC50": "0.01 to 0.1 µM"
  },
  {
    "compound": "COc1cc2nccc(Oc3ccc(NC(=O)c4cn(CCN5CCCCC5)c(=O)n(-c5ccc(F)cc5)c4=O)cc3F)c2cc1OC [Example 27]",
    "IC50": "0.01 to 0.1 µM"
  }
]

Ask: Name the reported IC50 value associated with the compound COc1cc2nccc(Oc3ccc(NC(=O)c4cn(C5CCC5)c(=O)n(-c5ccc(F)cc5)c4=O)cc3F)c2cc1OC [Example 29]
Reply: 0.01 to 0.1 µM

###

# tgt: recombinant human baculovirus-expressed cMET (Homo sapiens (Human))
# experiment.description: C-MET Kinase Assay (HTRF KinEASE)
# Type: biochemical
# measurement.context: average of two or more determinations; read-out: c-MET IC50
pIC50: −log10 of the molar value.
Recorded pIC50 for the following compounds

[
  {
    "entry.smiles": "CCn1cc(C(=O)Nc2cc(C)c(Oc3ccnc4cc(OC)c(OC)cc34)c(C)c2)c(=O)n(-c2ccc(F)cc2)c1=O",
    "pIC50": "7.00 to 8.00"
  },
  {
    "entry.smiles": "CCn1cc(C(=O)Nc2ccc(Oc3ccnc4cc(OC)c(OC)cc34)cn2)c(=O)n(-c2ccc(F)cc2)c1=O",
    "pIC50": "7.00 to 8.00"
  },
  {
    "entry.smiles": "COc1cc2nccc(Nc3ccc(NC(=O)c4nn(C(C)C)c(=O)n(-c5ccc(F)cc5)c4=O)cc3)c2cc1OC",
    "pIC50": "6.00 to 7.00"
  }
]

Ask: Item under review: `COc1cc2nccc(Oc3ccc(NC(=O)c4cn(CC5CC5)c(=O)n(CC5CC5)c4=O)cc3F)c2cc1OC` . Reported pIC50?
Reply: 7.00 to 8.00

Ask: Okay, and `COc1cc2nccc(Nc3ccc(NC(=O)c4cn(C(C)C)c(=O)n(-c5ccc(F)cc5)c4=O)cc3)c2cc1OC` ?
Reply: 6.00 to 7.00

###

Overview of reported pIC50 across a group of compounds:
# tgt: recombinant human baculovirus-expressed cMET (Homo sapiens (Human), UniProt P08581)
# experiment.description: C-MET Kinase Assay (HTRF KinEASE)
# Type: biochemical
# measurement.context: average of two or more determinations; read-out: c-MET IC50
pIC50: −log10 of the molar value.

Example compounds with recorded pIC50:
[
  {
    "entry.smiles": "COc1cc2nccc(Oc3ccc(NC(=O)c4cn(Cc5ccccc5)c(=O)n(-c5ccc(F)cc5)c4=O)cc3F)c2cc1OC",
    "tgt": "recombinant human baculovirus-expressed cMET (Homo sapiens (Human), UniProt P08581)",
    "result": "7.00 to 8.00"
  },
  {
    "entry.smiles": "CCn1c(C)c(C(=O)Nc2ccc(Oc3ccnc4cc(OC)c(OC)cc34)c(F)c2)c(=O)n(-c2ccc(F)cc2)c1=O",
    "tgt": "recombinant human baculovirus-expressed cMET (Homo sapiens (Human), UniProt P08581)",
    "result": "> 8.00"
  },
  {
    "entry.smiles": "CCn1cc(C(=O)Nc2ccc(Oc3ccnc4cc(OC)c(OC)cc34)cc2OC)c(=O)n(-c2ccc(F)cc2)c1=O",
    "tgt": "recombinant human baculovirus-expressed cMET (Homo sapiens (Human), UniProt P08581)",
    "result": "> 8.00"
  }
]

Ask: Quick one: pIC50 of `COc1cc2nccc(Oc3ccc(NC(=O)c4cn(CCn5ccnc5)c(=O)n(-c5ccc(F)cc5)c4=O)cc3F)c2cc1OC` ?
Reply: > 8.00

###

# tgt: recombinant human baculovirus-expressed cMET (Homo sapiens (Human), UniProt P08581)
# experiment.description: C-MET Kinase Assay (HTRF KinEASE)
# Format: biochemical
# measurement.context: average of two or more determinations; read-out: c-MET IC50
pIC50: −log10 of the molar value.
property: pIC50

# annotated cases, reported pIC50 shown
[
  {
    "compound": "COc1cc2nccc(Oc3ccc(NC(=O)c4cn(CCCOCc5ccccc5)c(=O)n(-c5ccc(F)cc5)c4=O)cc3F)c2cc1OC [Example 13]",
    "pIC50": "7.00 to 8.00"
  },
  {
    "compound": "CCn1nc(C(=O)Nc2ccc(Oc3ccnc4cc(OC)c(OC)cc34)c(C(F)(F)F)c2)c(=O)n(-c2ccc(F)cc2)c1=O [Example 169]",
    "pIC50": "> 8.00"
  },
  {
    "compound": "COc1cc2nccc(Oc3ccc(NC(=O)c4n[nH]c(=O)n(-c5ccc(F)cc5)c4=O)cc3F)c2cc1OC [Example 107]",
    "pIC50": "> 8.00"
  },
  {
    "compound": "COc1cc(Oc2ccnc3cc(OC)c(OC)cc23)ccc1NC(=O)c1cn(C)c(=O)n(-c2ccc(F)cc2)c1=O [Example 144]",
    "pIC50": "7.00 to 8.00"
  },
  {
    "compound": "C=CCn1cc(C(=O)Nc2ccc(Oc3ccnc4cc(OC)c(OC)cc34)c(F)c2)c(=O)n(-c2ccc(F)cc2)c1=O [Example 9]",
    "pIC50": "> 8.00"
  },
  {
    "compound": "CCn1cc(C(=O)Nc2ccc(Oc3ccnc4cc(OC)c(OC)cc34)c(F)c2)c(=O)n(C2CCCCC2)c1=O [Example 25]",
    "pIC50": "6.00 to 7.00"
  },
  {
    "compound": "COc1cc2nccc(Sc3ccc(NC(=O)c4cn(C(C)C)c(=O)n(-c5ccc(F)cc5)c4=O)cc3)c2cc1OC [Example 138]",
    "pIC50": "7.00 to 8.00"
  },
  {
    "compound": "COc1cc2nccc(Oc3ccc(NC(=O)c4cn(Cc5ncco5)c(=O)n(-c5ccc(F)cc5)c4=O)cc3F)c2cc1OC [Example 72]",
    "pIC50": "7.00 to 8.00"
  },
  {
    "compound": "COc1cc2nccc(Oc3ccc(NC(=O)c4c[nH]c(=O)n(-c5ccc(F)cc5)c4=O)cc3C)c2cc1OC [Example 149]",
    "pIC50": "> 8.00"
  }
]

Ask: Notebook entry, recombinant human baculovirus-expressed cMET (Homo sapiens (Human), UniProt P08581) assay: pIC50 of CCOc1cc2nccc(Oc3ccc(NC(=O)c4nn(CC)c(=O)n(-c5ccc(F)cc5)c4=O)cc3F)c2cc1OCC [Example 109] = ?
Reply: 7.00 to 8.00
